I'd appreciate it if you could supply therapeutic index (LD50/ED50) values for the items below.
methodSummary: oral acute toxicity in mice (LD50)
testParameters: mouse, in vivo; oral LD50 mice / oral ED50 rats; read-out: Ratio of LD50 to ED50
One number for each entry.

Here's what some known entries look like.
# substanceSmiles, therapeutic index (LD50/ED50)
rows = [
    ("O=C(O)c1snc(-c2cccc(C(F)(F)F)c2)c1O", 40),
    ("O=C(O)c1snc(-c2cccc(C(F)(F)F)c2)c1Cl", 21.6),
]

I'd like to know its therapeutic index (LD50/ED50). The compound in question is `O=C(O)c1cc(-c2cccc(C(F)(F)F)c2)ns1`
13.4

----------
targetSystem: xanthine oxidase (Bos taurus)
Construct: purchased Sigma Chemical Company, St. Louis, Mo; host or cells: milk (grade III, chromatographically purified)
methodSummary: in vitro xanthine oxidase assay (rate of uric acid formation from xanthine)
Format: biochemical
testParameters: milk xanthine oxidase 0.01 units, 0.05 micromoles xanthine in 1 ml, pH 7.4, room temperature, 292 nm; read-out: I50 (concentration of drug which inhibits 50% of the oxidation of xanthine to uric acid by the xanthine oxidase preparation) (converted)
endpoint: IC50 (nM)
Numbers only, in nM.

Here's what some known entries look like.
# substanceSmiles, unitAbbreviation, measuredValue
measured = [
    ("O=C(O)c1snc(-c2ccccc2)c1O", "nM", 203),
    ("O=C(O)c1snc(-c2cccc(Cl)c2)c1Br", "nM", 81.6),
    ("Nc1c(-c2cccc(Cl)c2)nsc1C(=O)O", "nM", 267),
]

Please state, for each entry, its recorded IC50.
1. COc1ccc(-c2cc(C(=O)O)sn2)cc1
2. Cc1cccc(-c2nsc(C(=O)O)c2Cl)c1
3. O=C(O)c1snc(-c2ccc(Cl)cc2)c1Cl
4. CC(C)Oc1ccc(-c2nsc(C(=O)O)c2N)cc1
5. Nc1c(-c2ccc3c(c2)OCO3)nsc1C(=O)O
6. Nc1c(-c2cccnc2)nsc1C(=O)O

[276, 134, 365, 68.3, 492, 1490]

Please state, for each entry, its recorded IC50.
1. O=C(O)c1cc(-c2ccccc2)ns1
2. COc1cccc(-c2nsc(C(=O)O)c2Cl)c1

[2340, 108]

Please state, for each entry, its recorded IC50.
1. Cc1cccc(-c2nsc(C(=O)O)c2N)c1
2. CCCOc1ccc(-c2nsc(C(=O)O)c2N)cc1
3. COc1ccc(-c2nsc(C(=O)O)c2Cl)cc1
4. O=C(O)c1snc(-c2cccc(F)c2)c1Cl

1: 640; 2: 86.2; 3: 51.9; 4: 116

----------
I'd appreciate it if you could supply IC50 values for the items below.
targetSystem: xanthine oxidase (Bos taurus, UniProt P80457)
Construct: purchased Sigma Chemical Company, St. Louis, Mo; host or cells: milk (grade III, chromatographically purified)
Sequence (P80457 whole entry): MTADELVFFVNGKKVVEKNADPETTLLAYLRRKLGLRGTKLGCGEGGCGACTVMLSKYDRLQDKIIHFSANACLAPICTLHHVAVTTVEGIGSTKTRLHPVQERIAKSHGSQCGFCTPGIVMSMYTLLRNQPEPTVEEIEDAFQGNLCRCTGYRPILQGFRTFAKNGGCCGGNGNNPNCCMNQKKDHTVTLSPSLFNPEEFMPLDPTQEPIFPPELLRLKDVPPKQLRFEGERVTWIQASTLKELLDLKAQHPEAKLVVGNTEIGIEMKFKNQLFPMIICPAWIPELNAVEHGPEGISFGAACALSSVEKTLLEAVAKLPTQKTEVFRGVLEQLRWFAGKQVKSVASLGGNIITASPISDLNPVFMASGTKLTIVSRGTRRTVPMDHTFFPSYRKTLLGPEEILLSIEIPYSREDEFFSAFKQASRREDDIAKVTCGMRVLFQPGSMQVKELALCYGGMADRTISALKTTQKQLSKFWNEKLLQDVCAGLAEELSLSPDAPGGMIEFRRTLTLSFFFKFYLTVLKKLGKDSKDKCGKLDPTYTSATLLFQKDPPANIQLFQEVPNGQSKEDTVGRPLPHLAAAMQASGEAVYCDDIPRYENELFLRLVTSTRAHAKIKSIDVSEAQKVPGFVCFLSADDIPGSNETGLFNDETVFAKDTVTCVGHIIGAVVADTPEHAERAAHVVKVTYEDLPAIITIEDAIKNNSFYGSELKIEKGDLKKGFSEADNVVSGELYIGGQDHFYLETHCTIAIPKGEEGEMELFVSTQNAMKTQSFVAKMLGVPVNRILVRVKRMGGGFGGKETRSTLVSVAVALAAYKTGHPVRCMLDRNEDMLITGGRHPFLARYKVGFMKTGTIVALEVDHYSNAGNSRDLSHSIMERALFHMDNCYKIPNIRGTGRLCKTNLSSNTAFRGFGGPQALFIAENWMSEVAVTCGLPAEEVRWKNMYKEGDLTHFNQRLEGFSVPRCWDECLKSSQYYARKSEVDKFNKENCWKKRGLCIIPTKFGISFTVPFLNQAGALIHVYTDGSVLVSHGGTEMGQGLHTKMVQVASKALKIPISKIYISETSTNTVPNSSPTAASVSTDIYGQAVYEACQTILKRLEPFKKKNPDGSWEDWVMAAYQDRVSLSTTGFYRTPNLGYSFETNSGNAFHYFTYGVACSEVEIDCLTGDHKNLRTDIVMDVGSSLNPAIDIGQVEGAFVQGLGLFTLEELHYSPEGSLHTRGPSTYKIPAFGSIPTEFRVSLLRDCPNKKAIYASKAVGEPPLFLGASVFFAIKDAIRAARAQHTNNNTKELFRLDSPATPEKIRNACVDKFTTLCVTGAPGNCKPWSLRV
methodSummary: in vitro xanthine oxidase assay (rate of uric acid formation from xanthine)
Assay type: biochemical
testParameters: milk xanthine oxidase 0.01 units, 0.05 micromoles xanthine in 1 ml, pH 7.4, room temperature, 292 nm; read-out: I50 (concentration of drug which inhibits 50% of the oxidation of xanthine to uric acid by the xanthine oxidase preparation) (converted)

Here's what some known entries look like.
# substanceSmiles, IC50
records = [
    ("Nc1c(-c2cccc(F)c2)nsc1C(=O)O", "1.26 µM"),
    ("COc1ccc(-c2nsc(C(=O)O)c2N)cc1F", "0.0671 µM"),
    ("Nc1c(-c2ccccc2)nsc1C(=O)O", "2.13 µM"),
    ("O=C(O)c1snc(-c2ccc(F)cc2)c1Cl", "0.202 µM"),
    ("CCOc1ccc(-c2nsc(C(=O)O)c2N)cc1", "0.106 µM"),
    ("O=C(O)c1snc(-c2ccc(Cl)cc2)c1I", "2.74 µM"),
    ("Nc1c(-c2ccc(Cl)cc2)nsc1C(=O)O", "2.75 µM"),
    ("COc1cccc(-c2nsc(C(=O)O)c2I)c1", "1.72 µM"),
    ("O=C(O)c1cc(-c2ccc(Cl)cc2)ns1", "1.96 µM"),
    ("COc1ccc(-c2nsc(C(=O)O)c2N)cc1", "0.559 µM"),
]

Please state, for each entry, its recorded IC50.
1. Cc1ccc(-c2nsc(C(=O)O)c2N)cc1
2. COc1ccc(-c2nsc(C(=O)O)c2N)cc1OC
3. O=C(O)c1snc(-c2cccc(C(F)(F)F)c2)c1F
4. Nc1c(-c2ccc(Cl)c(Cl)c2)nsc1C(=O)O
5. COc1cccc(-c2nsc(C(=O)O)c2N)c1
6. COc1ccc(-c2nsc(C(=O)O)c2N)cc1C

1: 1.2 µM; 2: 0.41 µM; 3: 0.0687 µM; 4: 0.214 µM; 5: 1.16 µM; 6: 0.151 µM

Please state, for each entry, its recorded IC50.
1. Nc1c(-c2ccc(F)cc2)nsc1C(=O)O
2. O=C(O)c1snc(-c2cccc(C(F)(F)F)c2)c1O

1: 1.6 µM; 2: 0.0256 µM
